# target-desc: CYP2C9 (Homo sapiens, UniProt P11712)
# Sequence (P11712 whole entry): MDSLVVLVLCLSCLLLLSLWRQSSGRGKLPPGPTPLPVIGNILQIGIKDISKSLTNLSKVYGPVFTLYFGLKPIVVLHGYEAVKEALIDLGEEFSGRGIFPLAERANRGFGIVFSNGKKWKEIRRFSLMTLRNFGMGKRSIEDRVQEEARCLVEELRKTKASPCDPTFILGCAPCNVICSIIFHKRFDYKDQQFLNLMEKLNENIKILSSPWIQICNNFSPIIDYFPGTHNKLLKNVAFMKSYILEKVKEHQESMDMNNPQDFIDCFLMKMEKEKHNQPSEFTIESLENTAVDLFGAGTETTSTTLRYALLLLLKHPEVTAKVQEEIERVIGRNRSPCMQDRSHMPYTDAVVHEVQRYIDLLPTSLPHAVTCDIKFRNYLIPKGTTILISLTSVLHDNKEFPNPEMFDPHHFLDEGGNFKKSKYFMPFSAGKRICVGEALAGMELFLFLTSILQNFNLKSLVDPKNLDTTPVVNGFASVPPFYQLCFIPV
# test-details: in vitro
# condition-label: microsomes, pH 7.4, % of Control Enzyme Activity
quantity: activity at 30 min, 30 µM (%)

1) O=C(O)COc1ccc(C(=O)c2cccs2)c(Cl)c1Cl [Tienilic acid] = 16.2

* * *

# Tested on: P-gp and BCRP
# test-details: P-gp and BCRP substrate assessment, bidirectional permeability in C2BBe1 cells
# condition-label: human, Caco-2, pH 7.4, BL-to-AP Recovery, C2BBe1 cells, 10 μM probe, batch used with Sol_2; single replicates
quantity: recovery at 10 μM (%)

1) C[C@H]1O[C@@H](O[C@H]2[C@@H](O)C[C@H](O[C@H]3[C@@H](O)C[C@H](O[C@H]4CC[C@@]5(C)[C@H](CC[C@@H]6[C@@H]5C[C@@H](O)[C@]5(C)[C@@H](C7=CC(=O)OC7)CC[C@]65O)C4)O[C@@H]3C)O[C@@H]2C)C[C@H](O)[C@@H]1O = 89.5
